Numbers sourced from the supplement of paper PMC6522484.

Measured TCF/Wnt firefly luciferase reporter signal, listed per entry for reference.
- Tested on: DLD1
- protocol_description: TCF/Wnt firefly luciferase reporter signal relative to plate median (fraction of plate median); higher = higher Wnt reporter signal
- cond: 5 µM; treatment time 24 h; reporter: 7TFP
Keep it simple and answer with nothing but the number.

Can you look up TCF/Wnt firefly luciferase reporter signal on DLD1 for "CC(=O)Nc1ccc(OC(=O)c2ccccc2O)cc1" ?
1

Continue with CC(=O)O[C@@H]1CC2C(C)(C)C(=O)C3OC3[C@]2(C)C2CC[C@@]3(C)[C@H](c4ccoc4)OC(=O)C4OC43[C@@]21C (stereo partly specified)
1.02

Continue with "COc1ccc(-c2coc3cc(O)cc(O)c3c2=O)cc1"
0.985

Continue with "O=C(/C=C/c1ccccc1)c1ccc(O[C@@H]2O[C@H](CO)[C@@H](O)[C@H](O)[C@H]2O)cc1O"
1.02

Continue with "O=c1cc(-c2cc(O)c(O)c(O)c2)oc2cc(O)cc(O)c12"
1

Continue with "COc1cc2ccc(=O)oc2cc1O"
0.999

---

- Tested on: SW480
- protocol_description: cell viability (CellTiter-Glo) relative to plate median (fraction of plate median); higher = more viable cells
- cond: 10 µM; treatment time 24 h; reporter: 7TFP
Criterion: cell viability strictly less than 1. Met: YES. Not met: NO.

compound | assigned_class
O=C(Cc1ccc(-c2ccc(OCCN3CCOCC3)cc2)cn1)NCc1ccccc1 | NO
Cc1ncc(-c2ccnc(Nc3ccc(S(C)(=O)=O)cc3)n2)n1C(C)C | NO
COC(=O)c1ccc2c(C(=Nc3ccc(N(C)C(=O)CN4CCN(C)CC4)cc3)c3ccccc3)c(O)[nH]c2c1 | NO
CCn1cc(-c2ccnc3[nH]c(-c4cccc(CN(C)C)c4)cc23)c(-c2ccc(NC(=O)N(C)C)cc2)n1 | NO
Cn1cc(-c2ccc3nnc(C(F)(F)c4ccc5ncccc5c4)n3n2)cn1 | YES
COc1ccc(COc2cc3oc(=O)c4cc(C(C)O)ccc4c3cc2OC)cc1 (stereo not given) | YES
COc1cc(OC)c(/C=C/S(=O)(=O)Cc2ccc(OC)c(NCC(=O)O)c2)c(OC)c1 | NO
CNC(=O)CN1CCC(Oc2cc3c(Nc4cccc(Cl)c4F)ncnc3cc2OC)CC1 | YES

Could you please tell me whether cell viability recorded for "Cc1cc(CN2CCN(c3c(Br)cnc4nc(-c5ccc(N6CCN(C)CC6)cc5)[nH]c34)CC2)no1" is less than 1?
NO

---

- Tested on: DLD1
- protocol_description: TCF/Wnt firefly luciferase reporter signal relative to plate median (fraction of plate median); higher = higher Wnt reporter signal
- cond: 10 µM; treatment time 24 h; reporter: 7TFP
Binary classification by TCF/Wnt firefly luciferase reporter signal, with 1 as an inclusive lower bound for Criterion met; all other cases are Criterion not met.

compound | assigned_class
COc1cc(CCc2cc(NC(=O)c3ccc(N4CC(C)NC(C)C4)cc3)n[nH]2)cc(OC)c1 (stereo not given) | Criterion not met
Cn1cnc(N)c2ncnc1-2 | Criterion met
CCN(CC)CCCCNc1ncc2cc(-c3cc(OC)cc(OC)c3)c(NC(=O)NC(C)(C)C)nc2n1 | Criterion not met

Could you please find out whether "COc1ccc2c3n(c(=NC(=O)c4cccnc4)nc2c1OC)CCN3" has TCF/Wnt firefly luciferase reporter signal that meets 1 or exceeds it?
Criterion not met

Continue with "O=C1NC(=O)C(c2ccccc2[N+](=O)[O-])=C1Nc1ccc(O)c(Cl)c1"
Criterion met
